Tested on: TDP-43 aggregation
Test: TDP-43 aggregation assay in SY5Y TDP-43WT cells (high content imaging)
Assay type: cell-based
Details: Homo sapiens, tetracycline induction 24 hrs, 1 hour compound pre-treatment, sodium arsenite 23 hrs, 8-point dose curve, percentage of cells with TDP-43 aggregates, read-out: IC50, Inhibition of TDP-43 Aggregation
# maps each entry to its IC50

// solved cases for IC50 follow
INSERT INTO measurements (structure_smiles_string, result) VALUES
  ('CC(C)N1CCC(c2ccc(-c3cc(Cl)c(C(=O)N4CC[C@H](N)C4)s3)cc2F)CC1', '< 500 nM'),
  ('CCN1CCC(c2ccc(-c3cc(C)c(C(=O)N4CC[C@H](N)C4)s3)cc2)CC1', '< 500 nM'),
  ('Cc1cc(-c2ccc(C3(N(C)C)CCC3)cc2)sc1C(=O)N1CC[C@H](N)C1', '500 to 1000 nM'),
  ('Cc1cc(-c2ccc(N3CCN(C4COC4)CC3)cc2)sc1C(=O)N1CC[C@H](N)C1', '500 to 1000 nM'),
  ('N[C@H]1CCN(C(=O)c2sc(-c3ccc(C4CCN(CCO)CC4)c(F)c3)cc2Cl)C1', '< 500 nM'),
  ('COc1cc(-c2ccc(C3CCN(C4CCOCC4)CC3)cc2)sc1C(=O)N1CC[C@H](N)C1', '500 to 1000 nM'),
  ('COCCN1CCC(c2ccc(-c3cc(C)c(C(=O)N4CC[C@H](N)C4)s3)cc2)CC1', '< 500 nM');

Please find the next compound below.
Given the entry Cc1cc(-c2ccc3c(c2)CN(C)CC3)sc1C(=O)N1CC[C@H](N)C1 , report its measured IC50.
< 500 nM

---

Test system: TDP-43 aggregation
Assay: TDP-43 aggregation assay in SY5Y TDP-43WT cells (high content imaging)
Assay type: cell-based
Details: Homo sapiens, tetracycline induction 24 hrs, 1 hour compound pre-treatment, sodium arsenite 23 hrs, 8-point dose curve, percentage of cells with TDP-43 aggregates, read-out: IC50, Inhibition of TDP-43 Aggregation
REPORTED_ENDPOINT: IC50

Consider the following illustrative entries.
INSERT INTO measurements (compound, system_name, reported_endpoint, result) VALUES
  ('Cc1cc(-c2ccc3c(c2)COCC3)sc1C(=O)N1CC[C@H](N)C1 [Compound 195]', 'TDP-43 aggregation', 'IC50', '1 to 2 µM'),
  ('Cc1ccc(-c2cc(C)c(C(=O)N3CC[C@H](N)C3)s2)cc1 [Compound 225]', 'TDP-43 aggregation', 'IC50', '< 0.5 µM'),
  ('Cc1cc(-c2ccc(C3CCOCC3)cc2)sc1C(=O)N1CC[C@H](N)C1 [Compound 243]', 'TDP-43 aggregation', 'IC50', '< 0.5 µM'),
  ('Cc1cc(-c2ccc(C3CCN(CCO)CC3)c(F)c2)sc1C(=O)N1CC[C@H](N)C1 [Compound 262]', 'TDP-43 aggregation', 'IC50', '< 0.5 µM'),
  ('N[C@H]1CCN(C(=O)c2sc(-c3ccc(C4CCN(C5CCOCC5)CC4)c(F)c3)cc2Cl)C1 [Compound 295]', 'TDP-43 aggregation', 'IC50', '< 0.5 µM'),
  ('Cc1cc(-c2ccc(C3CCCC3)cc2)sc1C(=O)N1CC[C@H](N)C1 [Compound 241]', 'TDP-43 aggregation', 'IC50', '6 to 10 µM'),
  ('Cc1cc(-c2cc(Cl)cc(Cl)c2)sc1C(=O)N1CC[C@H](N)C1 [Compound 245]', 'TDP-43 aggregation', 'IC50', '6 to 10 µM'),
  ('CC(C)(O)CN1CCC(c2ccc(-c3cc(Cl)c(C(=O)N4CC[C@H](N)C4)s3)cc2F)CC1 [Compound 256]', 'TDP-43 aggregation', 'IC50', '< 0.5 µM');

Okay, next one:
Need IC50 of N[C@H]1CCN(C(=O)c2sc(-c3ccc(C4CCN(C5CCCC5)CC4)c(F)c3)cc2Cl)C1 [Compound 270] , thanks.
< 0.5 µM
